Where do the numbers come from? From patent US20070224189A1.

Readings of FcγRIIIa Fold for the listed binders
Molecular target: extracellular region of human V158 FcγRIIIa fused with glutathione S-Transferase (GST) (human, UniProt P08637 17-208)
Sequence (P08637 17-208 F176V): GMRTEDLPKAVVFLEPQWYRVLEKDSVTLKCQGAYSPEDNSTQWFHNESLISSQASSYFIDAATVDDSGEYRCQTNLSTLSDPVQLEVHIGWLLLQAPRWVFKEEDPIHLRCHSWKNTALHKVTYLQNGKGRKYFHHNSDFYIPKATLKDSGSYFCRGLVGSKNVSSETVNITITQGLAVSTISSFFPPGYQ
Experiment: AlphaScreen competition
Write down the numeric answer in fold vs WT and omit the unit.

| binder | units_label | FcγRIIIa Fold |
| --- | --- | --- |
| F241Y/F243Y/V262T/V264T alemtuzumab (antibody) heavy: DKTHTCPPCPAPELLGGPSVYLYPPKPKDTLMISRTPEVTCTVTDVSHEDPEVKFNWYVDGVEVHNAKTKPREEQYNSTYRVVSVLTVLHQDWLNGKEYKCKVSNKALPAPIEKTISKAKGQPREPQVYTLPPSRDELTKNQVSLTCLVKGFYPSDIAVEWESNGQPENNYKTTPPVLDSDGSFFLYSKLTVDKSRWQQGNVFSCSVMHEALHNHYTQKSLSLSPGK | fold vs WT | 0.05 |

Now look at this entry.
## Input Would you mind telling me what FcγRIIIa Fold value was observed for F241L/F243L/V262I/V264I alemtuzumab (antibody) heavy: DKTHTCPPCPAPELLGGPSVLLLPPKPKDTLMISRTPEVTCIVIDVSHEDPEVKFNWYVDGVEVHNAKTKPREEQYNSTYRVVSVLTVLHQDWLNGKEYKCKVSNKALPAPIEKTISKAKGQPREPQVYTLPPSRDELTKNQVSLTCLVKGFYPSDIAVEWESNGQPENNYKTTPPVLDSDGSFFLYSKLTVDKSRWQQGNVFSCSVMHEALHNHYTQKSLSLSPGK ?
## Output 0.09
